- Tested on: SNB-75 CNS
- assayDetails: NCI-60 one-dose screen, 48 h (100 = growth as untreated, 0 = no growth, -100 = all killed)
- recordedConditions: 10 µM unless noted
Compounds without any hit were thinned out: in the full panel of roughly 83,000, 20% have a hit.
endpointName: growth (%)
Your answer is read as %, so omit the unit and give the number.

molSmiles	testedOn	growth, %
C=C(C)[C@@H]1CC[C@]2(C(=O)NC(COC(=O)C(Cl)Cl)(COC(=O)C(Cl)Cl)COC(=O)C(Cl)Cl)CC[C@]3(C)[C@H](CC[C@@H]4[C@@]5(C)CC[C@H](OC(C)=O)C(C)(C)[C@@H]5CC[C@]43C)[C@@H]12	SNB-75 CNS	81.2
NC(N)=N/N=C/c1ccc(Cl)cc1	SNB-75 CNS	81.1

Moving on to the next molecule.
Incoming: Give recorded growth. `Cc1cc(C#Cc2ccc(C(C)(C)C)cc2)ccc1-n1c(/C=C/c2c(Cl)cccc2Cl)nc2ccccc2c1=O`
Outgoing: 82

---

- Tested on: UACC-62 melanoma
- assayDetails: NCI-60 one-dose screen, 48 h
- recordedConditions: 10 µM unless noted
The panel holds about 83,000 compounds, 20% with a hit somewhere; the sample as a whole holds those more often. Active and inactive are the calls of the source. How the source made its calls: active means growth percent below 10; inactive means the rest.
Hello, when you answer, please use one of the following outcomes: active, inactive

Consider the following illustrative entries.
compound	class
NC(=O)c1ccc[n+](Cc2ccccc2)c1	inactive
CC(C)(C)[Si](C)(C)OC1[C@@H](O[Si](C)(C)C(C)(C)C)[C@@H](CNC(=O)NC(=O)NC(=O)CCl)O[C@H]1n1cnc2c(NC(=O)Nc3ccccc3)ncnc21 (some centres undefined)	inactive
COc1cc(OC)c2sc(-c3ccc(-n4cncc4-c4ccc(OC)c(N)c4)cc3)nc2c1	inactive

Incoming: Please indicate how the test categorized `COc1ccccc1CNCCCN1C(=O)c2ccc3c4c(ccc(c24)C1=O)C(=O)N(CCCOCCCCOCCCN)C3=O` .
Outgoing: active

Incoming: For `COc1ccc(-n2c(COc3ccc(F)cc3)n[nH]c2=S)cc1` , which call appears in the assay record?
Outgoing: inactive

Incoming: Which outcome was entered for the compound `O=C1NN(C(=O)c2ccccc2)C(c2ccc(Cl)c(Cl)c2)=C/C1=C\c1ccccc1[N+](=O)[O-]` in this test?
Outgoing: active

Incoming: Any idea what this test logged for `NS(=O)(=O)c1ccc(CCn2c(SCC(=O)N/N=C/c3ccccc3O)nc3ccccc3c2=O)cc1` ?
Outgoing: inactive

Incoming: Answer briefly: the call reported for `COc1ccc2c(c1)sc1nc(-c3ccccc3)c(-c3cccc4ccccc34)n12` in this assay.
Outgoing: inactive

Incoming: Just curious, what result did `C=C[C@H]1CCC/C=C/[C@@H]2C[C@H](O)C[C@H]2[C@H](O)/C=C/C(=O)O1` get here?
Outgoing: active

Incoming: Hey, what did the test say about CCCCCCCCCCCC1=NC(C)(C)CN1CC(C)O (centres undefined) ?
Outgoing: active

Incoming: How did this test come out for COc1cc2c(cc1OC)-c1cc(OC)c(OC)cc1C(CN(C)C)C2 (centres undefined) ?
Outgoing: inactive

Incoming: Status in this test for `c1cn2cc(-c3ccc4ncn(C5CCCCC5)c4c3)nc(-c3ccc4c(c3)ncn4C3CCCCC3)c2n1` ?
Outgoing: active

Incoming: How did this test come out for Oc1c(C(Nc2ccccc2Br)c2ccccc2)ccc2cccnc12 (centres undefined) ?
Outgoing: active

Incoming: How did this test come out for `COc1ccc2nc3cc(Cl)ccc3c(NC(=O)CSc3ccc(Cl)cc3)c2c1` ?
Outgoing: active
